target_entity: Human HDAC6 (Homo sapiens (Human), UniProt Q9UBN7)
Sequence (Q9UBN7 whole entry): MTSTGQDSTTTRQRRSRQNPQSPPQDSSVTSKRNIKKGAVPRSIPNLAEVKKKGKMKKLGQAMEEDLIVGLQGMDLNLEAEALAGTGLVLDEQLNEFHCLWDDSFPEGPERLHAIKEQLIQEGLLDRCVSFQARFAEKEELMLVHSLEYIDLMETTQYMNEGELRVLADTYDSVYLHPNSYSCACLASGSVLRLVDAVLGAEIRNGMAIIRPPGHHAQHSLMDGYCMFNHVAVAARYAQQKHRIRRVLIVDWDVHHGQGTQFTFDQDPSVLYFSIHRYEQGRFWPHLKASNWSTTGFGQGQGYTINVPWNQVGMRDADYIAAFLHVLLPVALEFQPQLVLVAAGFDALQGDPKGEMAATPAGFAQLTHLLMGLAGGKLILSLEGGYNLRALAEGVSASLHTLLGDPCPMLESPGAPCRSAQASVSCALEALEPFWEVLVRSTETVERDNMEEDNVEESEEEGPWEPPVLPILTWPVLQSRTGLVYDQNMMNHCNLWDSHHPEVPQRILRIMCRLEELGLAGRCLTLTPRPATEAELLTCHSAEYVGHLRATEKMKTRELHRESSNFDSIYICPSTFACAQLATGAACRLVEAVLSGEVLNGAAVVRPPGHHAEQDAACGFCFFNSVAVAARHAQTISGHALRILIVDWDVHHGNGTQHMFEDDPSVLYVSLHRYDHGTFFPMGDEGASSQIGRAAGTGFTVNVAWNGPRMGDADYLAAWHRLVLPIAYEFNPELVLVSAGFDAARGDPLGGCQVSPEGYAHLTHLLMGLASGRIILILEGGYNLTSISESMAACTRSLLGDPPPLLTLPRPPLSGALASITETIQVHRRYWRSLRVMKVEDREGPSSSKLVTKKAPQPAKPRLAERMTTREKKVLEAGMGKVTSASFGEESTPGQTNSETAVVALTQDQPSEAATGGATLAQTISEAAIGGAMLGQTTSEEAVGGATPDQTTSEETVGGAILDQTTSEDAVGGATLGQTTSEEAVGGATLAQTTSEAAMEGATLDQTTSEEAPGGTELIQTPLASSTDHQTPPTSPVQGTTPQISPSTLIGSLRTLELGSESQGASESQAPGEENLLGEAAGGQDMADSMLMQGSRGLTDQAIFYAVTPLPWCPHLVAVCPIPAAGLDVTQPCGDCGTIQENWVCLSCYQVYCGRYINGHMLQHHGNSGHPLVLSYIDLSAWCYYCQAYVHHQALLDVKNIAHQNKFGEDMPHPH
measurement_protocol: HDAC6 fluorogenic peptide deacetylation assay
Assay type: biochemical
details: human HDAC6, 50 μM substrate, 30° C., 2 h; read-out: IC50 (nM) of enzyme activity HDAC6
property_measured: IC50 (nM)

1. O=C(NO)c1ccc(CNC(=O)c2[nH]c(-c3ccccc3)cc2-c2ccc(O)cc2)cc1
2. O=C(NO)c1ccc(CNC(=O)c2[nH]c(-c3cccs3)cc2-c2ccc(O)cc2)cc1
3. COc1ccc(-c2cc(-c3ccoc3)c(C(=O)NCc3ccc(C(=O)NO)cc3)[nH]2)cc1
From the items above, give an ordering by IC50 that starts at the lowest reported number. # answer = labels listed in requested order
3, 2, 1

I. O=C(NO)c1ccc(CNC(=O)c2[nH]c(-c3ccoc3)cc2-c2ccc(O)cc2)cc1
II. COc1ccc(-c2cc(-c3ccsc3)c(C(=O)NCc3ccc(C(=O)NO)cc3)[nH]2)cc1
Could you point out whether the larger IC50 belongs to I or to II ? Refer to your chosen item by its label in the answer.
I

* * *

Test system: Colo205
measurement_protocol: Cancer cell growth inhibition, Colo205
Format: cell-based
details: Homo sapiens, COLO 205; Colo205, Colorectal Cancer, 72 h treatment
property_measured: IC50 (nM)

molecule: COc1ccc(-c2cc(-c3ccsc3)c(C(=O)NCc3ccc(C(=O)NO)cc3)[nH]2)cc1 [Example 28]
IC50 / nM: 3100
--
molecule: COc1ccc(-c2cc(-c3ccoc3)c(C(=O)NCc3ccc(C(=O)NO)cc3)[nH]2)cc1 [Example 27]
IC50 / nM: 248

A. CCc1c2c(nc3ccc(OC(=O)N4CCC(N5CCCCC5)CC4)cc13)-c1cc3c(c(=O)n1C2)COC(=O)[C@]3(O)CC [Irinotecan, reference compound]
B. O=C(NO)c1ccc(CNC(=O)c2[nH]c(-c3ccoc3)cc2-c2ccc(O)cc2)cc1 [Example 9]
Please indicate which has the smaller reported IC50: A , or B . Selection: enter the item's label.
B

1. O=C(NO)c1ccc(CNC(=O)c2[nH]c(-c3ccc(O)cc3)cc2-c2ccsc2)cc1 [Example 14]
2. O=C(NO)c1ccc(CNC(=O)c2[nH]c(-c3ccc(O)cc3)cc2-c2ccoc2)cc1 [Example 15]
Could you tell me which of these two has the smaller IC50 figure? First: 1 Second: 2 Answer by stating the label of the chosen item.
2
(2: 365 nM, 1: 1560 nM)

* * *

target_entity: Human HDAC4 (Homo sapiens (Human))
Sequence (P56524 627-1084 limits assumed): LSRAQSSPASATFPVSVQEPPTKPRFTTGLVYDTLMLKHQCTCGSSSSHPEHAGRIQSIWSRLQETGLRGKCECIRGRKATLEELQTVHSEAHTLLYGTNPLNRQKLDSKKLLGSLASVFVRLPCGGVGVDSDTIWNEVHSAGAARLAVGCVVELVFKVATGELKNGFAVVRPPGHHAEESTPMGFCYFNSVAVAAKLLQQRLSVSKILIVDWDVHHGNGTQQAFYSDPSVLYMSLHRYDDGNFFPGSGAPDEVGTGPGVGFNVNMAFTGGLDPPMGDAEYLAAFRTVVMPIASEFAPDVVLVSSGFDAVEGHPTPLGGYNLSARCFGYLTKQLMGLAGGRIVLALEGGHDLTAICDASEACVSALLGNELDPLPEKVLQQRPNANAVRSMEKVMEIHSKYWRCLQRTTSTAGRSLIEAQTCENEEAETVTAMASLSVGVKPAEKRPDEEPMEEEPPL
measurement_protocol: HDAC4 fluorogenic peptide deacetylation assay
Type: biochemical
details: human HDAC4, 50 μM substrate, 30° C., 2 h; read-out: IC50 (nM) of enzyme activity HDAC4
property_measured: IC50 (nM)

smiles_data: COc1ccc(-c2cc(-c3ccoc3)c(C(=O)NCc3ccc(C(=O)NO)cc3)[nH]2)cc1
IC50 (nM): 1080

I. O=C(NO)c1ccc(CNC(=O)c2[nH]c(-c3ccc(O)cc3)cc2-c2ccsc2)cc1
II. COc1ccc(-c2cc(-c3ccsc3)c(C(=O)NCc3ccc(C(=O)NO)cc3)[nH]2)cc1
III. O=C(NO)c1ccc(CNC(=O)c2[nH]c(-c3ccc(O)cc3)cc2-c2ccoc2)cc1
# desc sort on IC50 across 3 compounds Put the labels in the requested order and write them down.
II, I, III

* * *

target_entity: Human HDAC1 (Homo sapiens (Human), UniProt Q13547)
Sequence (Q13547 whole entry): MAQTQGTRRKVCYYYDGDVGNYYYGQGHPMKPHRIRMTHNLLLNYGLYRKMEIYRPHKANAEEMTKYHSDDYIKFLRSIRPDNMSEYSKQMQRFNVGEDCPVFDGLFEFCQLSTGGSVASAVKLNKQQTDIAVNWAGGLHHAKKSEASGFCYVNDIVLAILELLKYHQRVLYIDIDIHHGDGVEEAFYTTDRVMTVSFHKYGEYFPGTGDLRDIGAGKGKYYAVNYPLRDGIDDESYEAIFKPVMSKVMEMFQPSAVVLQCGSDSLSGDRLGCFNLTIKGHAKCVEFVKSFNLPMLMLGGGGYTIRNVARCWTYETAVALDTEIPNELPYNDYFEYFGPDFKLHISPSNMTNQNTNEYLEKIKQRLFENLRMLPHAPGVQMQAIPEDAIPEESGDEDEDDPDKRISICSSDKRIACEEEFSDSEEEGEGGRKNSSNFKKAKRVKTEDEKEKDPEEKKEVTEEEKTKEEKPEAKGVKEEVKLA
measurement_protocol: HDAC1 fluorogenic peptide deacetylation assay
Type: biochemical
details: human HDAC1, 50 μM substrate, 30° C., 2 h; read-out: IC50 (nM) of enzyme activity HDAC1
property_measured: IC50 (nM)

compound: COc1ccc(-c2cc(-c3ccccc3)[nH]c2C(=O)NCCCCCC(=O)NO)cc1 [Kendine 91, reference compound]
result_value: 508

a. O=C(NO)c1ccc(CNC(=O)c2[nH]c(-c3ccc(O)cc3)cc2-c2ccoc2)cc1
b. O=C(NO)c1ccc(CNC(=O)c2[nH]c(-c3cccs3)cc2-c2ccc(O)cc2)cc1
Given the listed items, does a or b have the lesser reported IC50? Respond with the label that goes with your answer.
a

* * *

target_entity: UniProtKB Q8WUI4
Sequence (Q8WUI4 479-952 limits assumed): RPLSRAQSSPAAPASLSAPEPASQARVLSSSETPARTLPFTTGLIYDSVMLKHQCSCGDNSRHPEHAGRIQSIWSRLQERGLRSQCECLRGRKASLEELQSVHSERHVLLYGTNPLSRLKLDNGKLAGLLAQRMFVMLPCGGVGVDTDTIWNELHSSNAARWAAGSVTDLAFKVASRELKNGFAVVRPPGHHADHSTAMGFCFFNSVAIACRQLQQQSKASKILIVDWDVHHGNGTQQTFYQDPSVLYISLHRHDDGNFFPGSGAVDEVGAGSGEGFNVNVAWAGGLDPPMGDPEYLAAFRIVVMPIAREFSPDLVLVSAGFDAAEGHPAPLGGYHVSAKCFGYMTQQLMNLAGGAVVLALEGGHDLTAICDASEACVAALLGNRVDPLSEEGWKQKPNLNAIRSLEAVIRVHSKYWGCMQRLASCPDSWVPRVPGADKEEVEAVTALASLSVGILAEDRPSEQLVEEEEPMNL
measurement_protocol: HDAC7 fluorogenic peptide deacetylation assay
Format: biochemical
details: human HDAC7, 50 μM substrate, 30° C., 2 h; read-out: IC50 (nM) of enzyme activity HDAC7
property_measured: IC50

Record request: IC50 value, item Nc1ccccc1NC(=O)c1ccc(CNC(=O)c2[nH]c(-c3ccc(O)cc3)cc2-c2ccoc2)cc1
> 5000 nM

* * *

target_entity: Human HDAC1 (Homo sapiens (Human))
measurement_protocol: HDAC1 fluorogenic peptide deacetylation assay
Assay type: biochemical
details: human HDAC1, 50 μM substrate, 30° C., 2 h; read-out: IC50 (nM) of enzyme activity HDAC1
Below is a list of entries, each paired with its recorded IC50 value.

smiles_data: COc1ccc(-c2cc(-c3ccccc3)[nH]c2C(=O)NCc2ccc(C(=O)Nc3ncccn3)cc2)cc1
IC50: > 5000 nM

smiles_data: COc1ccc(-c2cc(-c3ccccc3)[nH]c2C(=O)NCc2ccc(C(=O)Nc3ccccc3S)cc2)cc1
IC50: > 5000 nM

Look up IC50: COc1ccc(-c2cc(-c3ccccc3)[nH]c2C(=O)NCc2ccc(C(=O)Nc3ccccn3)cc2)cc1
> 5000 nM

* * *

Listed molecules paired with reported melting point

molecule: O=C(NO)c1ccc(CNC(=O)c2[nH]c(-c3ccoc3)cc2-c2ccc(F)cc2)cc1 [Example 12]
melting point: 162 to 164 °C

molecule: O=C(NO)c1ccc(CNC(=O)c2[nH]c(-c3ccccc3)cc2-c2ccc(O)cc2)cc1 [Example 10]
melting point: 139 to 141 °C

molecule: O=C(NO)c1ccc(CNC(=O)c2[nH]c(-c3ccc(O)cc3)cc2-c2ccsc2)cc1 [Example 14]
melting point: 121 to 122 °C

Which measured melting point value corresponds to O=C(NO)c1ccc(CNC(=O)c2[nH]c(-c3cccs3)cc2-c2ccc(F)cc2)nc1 [Example 11] ?
151 to 152 °C

# query: melting point of entry COc1ccc(-c2cc(-c3ccccc3)[nH]c2C(=O)NCc2ccc(C(=O)Nc3ncccn3)cc2)cc1 [Example 26]
190 to 191 °C

Need melting point of COc1ccc(-c2cc(-c3ccccc3)[nH]c2C(=O)NCc2ccc(C(=O)Nc3ccccc3N)cc2)cc1 [Example 21] , thanks.
142 to 143 °C (dec.)

What melting point value was documented for this molecule, COc1ccc(-c2cc(-c3ccccc3)[nH]c2C(=O)Nc2cccc(CC(=O)NO)c2)cc1 [Example 18] ?
205 to 206 °C

* * *

target_entity: histone deacetylase from rat liver
measurement_protocol: Rat liver HDAC assay
Assay type: biochemical
details: Boc-Lys(Ac)-AMC substrate, 30° C., 2 h, read-out: IC50 (nM) of enzyme activity Rat liver
property_measured: IC50 (nM)

Please review the following examples before continuing.
smiles_data: O=C(NO)c1ccc(CNC(=O)c2[nH]c(-c3cccs3)cc2-c2ccc(F)cc2)cc1
IC50 / nM: 49

smiles_data: O=C(NO)c1ccc(CNC(=O)c2[nH]c(-c3ccccc3)cc2-c2ccc(F)cc2)o1
IC50 / nM: 9790

smiles_data: COc1ccc(-c2cc(-c3ccccc3)[nH]c2C(=O)Nc2ccc(C(=O)NO)cc2)cc1
IC50 / nM: 101

smiles_data: O=C(NO)c1ccc(CNC(=O)c2[nH]c(-c3ccccc3)cc2-c2ccc([N+](=O)[O-])cc2)cc1
IC50 / nM: 62

smiles_data: O=C(NO)c1ccc(CNC(=O)c2[nH]c(-c3ccc(F)cc3)cc2-c2ccc(F)cc2)cc1
IC50 / nM: 82

I. O=C(NO)c1ccc(CNC(=O)c2[nH]c(-c3ccccc3)cc2-c2ccc(F)c(F)c2)cc1
II. O=C(NO)c1ccc(CNC(=O)c2[nH]c(-c3ccoc3)cc2-c2ccc(F)cc2)cc1
Between the entries labelled I and II , which has a larger IC50 value on record? Pick one and reply with its label.
I
(I: 129 nM, II: 56 nM)

* * *

Tested on: NCI-H460
measurement_protocol: Cancer cell growth inhibition, NCI-H460
Assay type: cell-based, human
details: Homo sapiens; NCI-H460, Lung Cancer, 72 h treatment
pIC50: −log10 of the molar value.
property_measured: pIC50

smiles_data: COc1ccc(-c2cc(-c3ccsc3)c(C(=O)NCc3ccc(C(=O)NO)cc3)[nH]2)cc1
pIC50: 4.92

P. O=C(NO)c1ccc(CNC(=O)c2[nH]c(-c3ccoc3)cc2-c2ccc(O)cc2)cc1
Q. COc1ccc(-c2cc(-c3ccoc3)c(C(=O)NCc3ccc(C(=O)NO)cc3)[nH]2)cc1
Returns the identifier with the smallest measured pIC50 among P and Q . Response format: the label of the selected entry.
P
